Test system: NCI-H23 lung
Test: NCI-60 one-dose screen, 48 h (100 = growth as untreated, 0 = no growth, -100 = all killed)
Conditions: 10 µM unless noted
Compounds without any hit were thinned out: in the full panel of roughly 83,000, 20% have a hit.
reported_property: growth (%)

{"columns": ["compound", "target_of_assay", "reported_property", "result_value"],
 "data": [
  ["C#C[C@]1(O)CC[C@H]2[C@@H]3CC=C4c5sc(Nc6cccc(Cl)n6)nc5CC[C@]4(C)[C@H]3CC[C@@]21C", "NCI-H23 lung", "growth", 16.1],
  ["COc1ccc(/C=N/Nc2nc(Nc3ccccc3)nc(Nc3ccc(S(N)(=O)=O)cc3)n2)cc1", "NCI-H23 lung", "growth", 70.3],
  ["N#Cc1c(-c2cccs2)cc(-c2cnccn2)nc1SCC(=O)NNC(=S)Nc1ccc(F)cc1", "NCI-H23 lung", "growth", 108],
  ["COc1ccc(-c2nc3cc(Cl)c(Cl)cc3n2CC(=O)N=Nc2c(O)[nH]c3ccc(Cl)cc23)cc1", "NCI-H23 lung", "growth", 21.2],
  ["COc1ccc(NC(=O)[C@H](C)N)cc1C(=O)Nc1cccc(-c2cc(=O)c3c(OC)c(OC)c(OC)cc3o2)c1", "NCI-H23 lung", "growth", 64.4],
  ["COc1ccc(N2C(=O)c3cc(OC)c(OC)cc3NC2SCc2ccccc2)cc1 (configuration not stated)", "NCI-H23 lung", "growth", 107],
  ["COc1ccc(/C=C/C(=O)c2nnn(-c3ccc(Br)cc3)c2C)cc1OC", "NCI-H23 lung", "growth", 59.9]
]}

* * *

Measured growth accompanies every entry in the list below.
Test system: A498 renal
Assay: NCI-60 one-dose screen, 48 h (100 = growth as untreated, 0 = no growth, -100 = all killed)
Settings: 10 µM unless noted
Procedure: Growth inhibition of the A498 human tumor cell line is measured as a screen for anti-cancer activity. Cells are grown in 96 well plates and exposed to the test compound for 48 hours. Compounds are tested at a single concentration, which is 10^-5 M for most compounds. The reported endpoint is percent growth (GI% or GIPRCNT), where numbers from 0 - 100% represent growth inhibition, and numbers from -100% - 0 represent cell death. For example, a value of 40 represents 60% growth inhibition. […]
About 83,000 compounds went through this panel and 20% of them were active in at least one assay; those are over-represented in the sample as a whole.

{"columns": ["mol_smiles", "target_of_assay", "units_text", "growth"],
 "data": [
  ["O=C(NCCCNc1cc(-c2cn(-c3ccccc3)nc2-c2cccc(O)c2)ccn1)Nc1cc(C(F)(F)F)cc(C(F)(F)F)c1", "A498 renal", "%", 71.4],
  ["COc1cc2c3c(n(CCCN4CCCCC4)c(=O)c2cc1OC)-c1cc2c(cc1C3=O)OCO2", "A498 renal", "%", 70.9],
  ["O=C1c2c(c3c4cccnc4[nH]c3c3ccc4ccccc4c23)C(=O)N1CCN1CCNCC1", "A498 renal", "%", 70.2]
]}

* * *

Tested on: NCI-H23 lung
Experiment: NCI-60 one-dose screen, 48 h
Details: 10 µM unless noted
This is part of a sample that, as a whole, favours compounds with a hit. Of some 83,000 tested, about 20% had one in any assay. Calls of active or inactive are those of the source. The calls were made as follows: active = growth percent below 10; inactive = the rest.
Classes used: 1 = active, -1 = inactive

{"columns": ["compound", "label_class"],
 "data": [
  ["NS(=O)(=O)c1ccc(Nc2nc(N/N=C/c3ccc([N+](=O)[O-])cc3)nc(Nc3ccccc3)n2)cc1", -1],
  ["O=C(/C=C1\\C=CN(CCCCCCF)c2ccccc21)n1ccc2ccccc21", -1],
  ["CCN1C(=O)N(CC)C2SC(N/N=C/c3ccc(OC)cc3)=NC21 (centres undefined)", -1],
  ["O=C1c2c(c3c4cc(Br)ccc4[nH]c3c3ccc4ccccc4c23)C(=O)N1CCN1CCCCC1", -1],
  ["CC(C)(C)n1nnnc1C(Nc1nccs1)c1cc2cccc3ccc4cccc1c4c32 (centres undefined)", -1],
  ["Cc1cc(O)c(=O)cc2c1C[C@H]1CC(C)(C)/C=C/C[C@]3(C)Oc4cc(=O)c(O)cc(C)c4C[C@H]3C[C@H](O)[C@@]1(C)O2", 1],
  ["COc1ccc(S(=O)(=O)NCCCNc2nccc(-n3cnc4ccccc43)n2)cc1", -1],
  ["Fc1ccc(-c2cc3nc(C(Cl)Cl)nc(-c4cccs4)n3n2)cc1", -1],
  ["COc1ccc(-c2nc(SCCC(C)C)nc(N/N=C\\c3ccc(O)cc3)c2C#N)cc1", -1],
  ["CS(=O)(=O)c1ccc(-c2nn(-c3ccccc3)cc2/C=N/NC(=O)c2ccncc2)cc1", -1],
  ["CC1(C)CC[C@]2(C(=O)N3CCCNCC3)CC[C@]3(C)C(=CC[C@@H]4[C@@]5(C)CCC(=O)C(C)(C)[C@@H]5CC[C@]43C)[C@H]2C1", -1],
  ["O=C(N/N=C\\c1ccc(Cl)cc1)c1ccc2nc(-c3ccc(Br)cc3)[nH]c2c1", 1],
  ["CN1CCN(Cc2ccc(NC(=O)c3cncc(C#Cc4cnc5ccc(NC6CCOCC6)nn45)c3)cc2C(F)(F)F)CC1", 1],
  ["O=S(=O)(Nc1cc(Cl)c(F)c(Cl)c1)c1ccc(-c2cnc(C3CC3)o2)cc1", -1]
]}
